// provenance: the supplement of paper PMC13380429

Field: inhibition of SARS-CoV-2 cytopathic effect. Provide a value for each of the compounds that follow.
- Tested on: Vero E6 infected with SARS-CoV-2
- method: inhibition of SARS-CoV-2 cytopathic effect; higher = more antiviral protection, active = above 15
- conditionNotes: 833.33 nM; 48 h
Express your answer in %, writing the number without its unit.

Prompt: Recorded inhibition of SARS-CoV-2 cytopathic effect for CNCc1cc(-c2ccccc2F)n(S(=O)(=O)c2cccnc2)c1 , please?
Response: -1.21

Prompt: Recorded inhibition of SARS-CoV-2 cytopathic effect for C[C@H](Oc1cc(-c2cnn(C3CCNCC3)c2)cnc1N)c1c(Cl)ccc(F)c1Cl [crizotinib-(S)] , please?
Response: -0.47

Prompt: Recorded inhibition of SARS-CoV-2 cytopathic effect for NCCc1c[nH]cn1 , please?
Response: 1.23

Prompt: Recorded inhibition of SARS-CoV-2 cytopathic effect for C#Cc1cccc(Nc2ncnc3cc(OCCOC)c(OCCO)cc23)c1 , please?
Response: -4.18

Prompt: Recorded inhibition of SARS-CoV-2 cytopathic effect for O=C(O)Cc1cccc(OCCCN(Cc2cccc(C(F)(F)F)c2Cl)CC(c2ccccc2)c2ccccc2)c1 , please?
Response: 0.38

Prompt: Recorded inhibition of SARS-CoV-2 cytopathic effect for CN(Cc1ccccc1)C(=O)[C@H](Cc1ccc2ccccc2c1)NC(=O)[C@@H]1CCCN1C(=O)Nc1ccccc1[N+](=O)[O-] , please?
Response: 5.13

Prompt: Recorded inhibition of SARS-CoV-2 cytopathic effect for CN(C)C(=O)C(=O)c1cn(C)c2cc(Cl)c(C(=O)N3CCC(Cc4ccc(F)cc4)CC3)cc12 , please?
Response: -2.05

Prompt: Recorded inhibition of SARS-CoV-2 cytopathic effect for COc1cccc(-c2cc(F)ccc2[C@H]2Cc3nc(N)nc(C)c3C(=O)N2)n1 , please?
Response: -0.51

Prompt: Recorded inhibition of SARS-CoV-2 cytopathic effect for CC(=O)Nc1cccc(O)c1 , please?
Response: 4.81

Prompt: Recorded inhibition of SARS-CoV-2 cytopathic effect for Oc1cc(O)c2c(c1)O[C@H](c1ccc(O)c(O)c1)[C@@H](O)C2 , please?
Response: -0.95

Prompt: Recorded inhibition of SARS-CoV-2 cytopathic effect for CC(C)(C)NCC(O)COc1cccc2[nH]c(=O)[nH]c12 (stereo not given) , please?
Response: -0.11

Prompt: Recorded inhibition of SARS-CoV-2 cytopathic effect for CNC(=O)CN(CCN(CCN(CC(=O)[O-])CC(=O)NC)CC(=O)[O-])CC(=O)[O-].[Gd+3] [gadodiamide] , please?
Response: -0.21

Prompt: Recorded inhibition of SARS-CoV-2 cytopathic effect for CCOC(=O)c1ncc2[nH]c3cccc(OC(C)C)c3c2c1C , please?
Response: 5.05

Prompt: Recorded inhibition of SARS-CoV-2 cytopathic effect for Cc1ncc(CSSCc2cnc(C)c(O)c2CO)c(CO)c1O , please?
Response: 1.42

Prompt: Recorded inhibition of SARS-CoV-2 cytopathic effect for CCCC[C@]1(CC)CS(=O)(=O)c2cc(CNC(CC(=O)O)CC(=O)O)c(OC)cc2[C@@H](c2ccccc2)N1 , please?
Response: 1.44

Prompt: Recorded inhibition of SARS-CoV-2 cytopathic effect for Cc1ccc(C(=O)c2cc(O)c(O)c([N+](=O)[O-])c2)cc1 , please?
Response: 0.66

Prompt: Recorded inhibition of SARS-CoV-2 cytopathic effect for CC(=O)N[C@@H](Cc1c[nH]c2ccccc12)C(=O)OCc1cc(C(F)(F)F)cc(C(F)(F)F)c1 , please?
Response: 1.61

Prompt: Recorded inhibition of SARS-CoV-2 cytopathic effect for Cc1sc2c(c1C)C(c1ccc(Cl)cc1)=N[C@@H](CC(N)=O)c1nnc(C)n1-2 , please?
Response: -4.22

Prompt: Recorded inhibition of SARS-CoV-2 cytopathic effect for CN1CC(=O)N=C1NC(=O)Nc1cccc(Cl)c1 , please?
Response: 1.08

Prompt: Recorded inhibition of SARS-CoV-2 cytopathic effect for CN(C)C(=O)n1nnnc1Cc1ccc(-c2ccccc2)cc1 , please?
Response: 2.07
